For each entry below, report its Activated clotting time (s) (mean ± SD) value.
# procedure text: effect on coagulation function in mice (ACT)
# Type: in vivo, C57BL/6J mice
# condition notes: 200 mg/kg tail vein once a day until Day 24, blood on Day 25; control group 73.50 ± 7.15
Ends that are not written are not given here. PEG = not defined here

Would you kindly share the measured Activated clotting time (s) (mean ± SD) for N10: SEQ ID NO: 1 with deletion of positions 15-18 and 1-3 and PEG modification at the carboxyl terminal (RFLAKENVTQD-{PEG}; reading uncertain) ?
73.27 ± 7.36 s

Would you kindly share the measured Activated clotting time (s) (mean ± SD) for N4: SEQ ID NO: 1 with deletion of positions 15-18 and positions 1-3 (RFLAKENVTQD) ?
73.64 ± 8.12 s

Would you kindly share the measured Activated clotting time (s) (mean ± SD) for N8: SEQ ID NO: 1 with deletion of positions 15-18 and positions 3, 4 and 11 (YRFLAKENTQD) ?
74 ± 8.92 s

Would you kindly share the measured Activated clotting time (s) (mean ± SD) for N12: SEQ ID NO: 1 with deletion of position 18 and positions 1-2 (VRFLAKENVTQDAED) ?
75.55 ± 7.61 s

Would you kindly share the measured Activated clotting time (s) (mean ± SD) for N7: SEQ ID NO: 1 with addition of one amino acid at the carboxyl terminal and substitution A15R (YRVRFLAKENVTQDREDNC) ?
73.27 ± 8.43 s

Would you kindly share the measured Activated clotting time (s) (mean ± SD) for N5: SEQ ID NO: 1 with addition of one amino acid at the carboxyl terminal and deletion of positions 1-3 (RFLAKENVTQDAEDNC) ?
72.91 ± 8.04 s

Would you kindly share the measured Activated clotting time (s) (mean ± SD) for N6: SEQ ID NO: 1 with deletion of four amino acids at the carboxyl terminal (positions 15-18) (YRVRFLAKENVTQD) ?
74.09 ± 8.51 s

###

# Tested on: human lung cancer cells (A549) subcutaneous xenograft
# procedure text: lung cancer subcutaneous xenograft animal model, intravenous injection
# Type: in vivo, mice (BALB/c-nu/nu)
# condition notes: intravenous 60 mg/kg once every other day, 20 days, control 3373.26 ± 581.44
Ends that are not written are not given here. PEG = not defined here
For each entry below, report its Volume of tumor (mm^3) (mean ± SD) value.
Please state the number and follow it with the unit.

Would you kindly share the measured Volume of tumor (mm^3) (mean ± SD) for N40: SEQ ID NO: 1 with deletion of positions 1-5 and 15-18, PEG at the amino terminal, two amino acids added at the carboxyl terminal ({PEG}-LAKENVTQDRC; reading uncertain) ?
997.42 ± 267.79 mm^3

Would you kindly share the measured Volume of tumor (mm^3) (mean ± SD) for N47: SEQ ID NO: 1 with N18R, deletion of positions 1-2, one amino acid added and PEG at the carboxyl terminal (VRFLAKENVTQDAEDRC-{PEG}; reading uncertain) ?
1748.82 ± 508.08 mm^3

###

# Test system: human lung cancer cells (A549) subcutaneous xenograft
# procedure text: lung cancer subcutaneous xenograft animal model, intravenous injection
# Assay type: in vivo, mice (BALB/c-nu/nu)
# condition notes: intravenous 60 mg/kg once every other day, 20 days, control 3373.26 ± 581.44
Ends that are not written are not given here. PEG = not defined here
For each entry below, report its Volume of tumor (mm^3) (mean ± SD) value.
Give your result in mm^3 as a bare value.

Would you kindly share the measured Volume of tumor (mm^3) (mean ± SD) for N11: SEQ ID NO: 1 with deletion of positions 15-18 and 1-3 and PEG modification at the amino terminal ({PEG}-RFLAKENVTQD; reading uncertain) ?
1419.28

Would you kindly share the measured Volume of tumor (mm^3) (mean ± SD) for N21: SEQ ID NO: 1 with deletion of positions 1-5 and 15-18 and addition of one amino acid at the amino terminal (SLAKENVTQD) ?
1065.78

Would you kindly share the measured Volume of tumor (mm^3) (mean ± SD) for N4: SEQ ID NO: 1 with deletion of positions 15-18 and positions 1-3 (RFLAKENVTQD) ?
1515.07

Would you kindly share the measured Volume of tumor (mm^3) (mean ± SD) for N35: SEQ ID NO: 1 with A15R, addition of one amino acid and PEG modification at the carboxyl terminal (YRVRFLAKENVTQDREDNC-{PEG}; reading uncertain) ?
1097.54

Would you kindly share the measured Volume of tumor (mm^3) (mean ± SD) for N17: SEQ ID NO: 1 with addition of two amino acids to the carboxyl terminal (YRVRFLAKENVTQDAEDNCT) ?
1301.58

Would you kindly share the measured Volume of tumor (mm^3) (mean ± SD) for N49: SEQ ID NO: 1 with A7R, deletion of positions 1-2 and position 18, PEG modification at the carboxyl terminal (VRFLRKENVTQDAED-{PEG}; reading uncertain) ?
1513.42

Would you kindly share the measured Volume of tumor (mm^3) (mean ± SD) for N53: SEQ ID NO: 1 with A15R, one amino acid added at each terminal, PEG modification at the carboxyl terminal (FYRVRFLAKENVTQDREDNC-{PEG}; reading uncertain) ?
1549.08

Would you kindly share the measured Volume of tumor (mm^3) (mean ± SD) for N31: SEQ ID NO: 1 with deletion of positions 3, 4, 11 and 15-18 and PEG modification at the carboxyl terminal (YRFLAKENTQD-{PEG}; reading uncertain) ?
1439.74

Would you kindly share the measured Volume of tumor (mm^3) (mean ± SD) for N28: SEQ ID NO: 1 with deletion of positions 1-2 and 18 and PEG modification at the amino terminal ({PEG}-VRFLAKENVTQDAED; reading uncertain) ?
1286.52

Would you kindly share the measured Volume of tumor (mm^3) (mean ± SD) for N30: SEQ ID NO: 1 with deletion of positions 1-5 and 15-18 and PEG modification at the carboxyl terminal (LAKENVTQD-{PEG}; reading uncertain) ?
1187.13

Would you kindly share the measured Volume of tumor (mm^3) (mean ± SD) for N5: SEQ ID NO: 1 with addition of one amino acid at the carboxyl terminal and deletion of positions 1-3 (RFLAKENVTQDAEDNC) ?
1353.09

Would you kindly share the measured Volume of tumor (mm^3) (mean ± SD) for N39: SEQ ID NO: 1 with addition of two amino acids and PEG modification at the carboxyl terminal (YRVRFLAKENVTQDAEDNTC-{PEG}; reading uncertain) ?
918.84

Would you kindly share the measured Volume of tumor (mm^3) (mean ± SD) for N22: SEQ ID NO: 1 with substitution A7R, deletion of three amino acids at the amino terminal and of positions 15-18 (RFLRKENVTQD) ?
1288.08

Would you kindly share the measured Volume of tumor (mm^3) (mean ± SD) for N33: SEQ ID NO: 1 with deletion of positions 1-5, addition of one amino acid and PEG modification at the carboxyl terminal (LAKENVTQDAEDNC-{PEG}; reading uncertain) ?
1699.23

Would you kindly share the measured Volume of tumor (mm^3) (mean ± SD) for N34: SEQ ID NO: 1 with A15R, addition of one amino acid at the carboxyl terminal, PEG modification at the amino terminal ({PEG}-YRVRFLAKENVTQDREDNC; reading uncertain) ?
1472.21

Would you kindly share the measured Volume of tumor (mm^3) (mean ± SD) for N14: SEQ ID NO: 1 with deletion of positions 1-5 and addition of one amino acid at the carboxyl terminal (LAKENVTQDAEDNC) ?
1431.61

Would you kindly share the measured Volume of tumor (mm^3) (mean ± SD) for N41: SEQ ID NO: 1 with addition of two amino acids at the amino terminal, deletion of position 18, PEG at the carboxyl terminal (FRYRVRFLAKENVTQDAED-{PEG}; reading uncertain) ?
1075.33

Would you kindly share the measured Volume of tumor (mm^3) (mean ± SD) for N23: SEQ ID NO: 1 with substitution A7R, deletion of position 11 and of positions 15-18 (YRVRFLRKENTQDAED) ?
993.11

Would you kindly share the measured Volume of tumor (mm^3) (mean ± SD) for N18: SEQ ID NO: 1 with addition of one amino acid at the amino terminal and one at the carboxyl terminal (FYRVRFLAKENVTQDAEDNC) ?
1161.51
